- experimental.target: human CXCR4 (human, UniProt P61073 1-352)
- Sequence (P61073 whole entry): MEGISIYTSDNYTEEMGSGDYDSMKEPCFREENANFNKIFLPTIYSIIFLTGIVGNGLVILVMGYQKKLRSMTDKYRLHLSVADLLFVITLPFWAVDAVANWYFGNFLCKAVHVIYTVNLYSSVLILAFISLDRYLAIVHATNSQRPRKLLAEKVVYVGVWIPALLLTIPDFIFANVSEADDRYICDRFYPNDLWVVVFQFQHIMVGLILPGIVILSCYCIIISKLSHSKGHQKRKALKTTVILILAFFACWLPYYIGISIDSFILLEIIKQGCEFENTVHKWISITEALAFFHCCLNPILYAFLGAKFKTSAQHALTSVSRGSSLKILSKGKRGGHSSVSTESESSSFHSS
- measurement.notes: cell-based or functional assay
Bridges are numbered along the chain shown (N, C = ends). [ ]: non-standard residue; d: D form. 2Nal = N[C@@H](Cc1ccc2ccccc2c1)C(=O)O; Cit = NC(=O)NCCC[C@H](N)C(=O)O

binder | IC50 (nM) Ca2+ assay (method 2)
cyclo(RR[Cit]CRG[dP]RR[2Nal]CYQK[dP]P) (disulfide 4-11; SMILES N=C(N)NCCC[C@@H]1NC(=O)[C@@H]2CSSC[C@H](NC(=O)[C@H](Cc3ccc4ccccc4c3)NC(=O)[C@H](CCCNC(=N)N)NC(=O)[C@H](CCCNC(=N)N)NC(=O)[C@H]3CCCN3C(=O)CNC1=O)C(=O)N[C@@H](Cc1ccc(O)cc1)C(=O)N[C@@H](CCC(N)=O)C(=O)N[C@@H](CCCCN)C(=O)N1CCC[C@@H]1C(=O)N1CCC[C@H]1C(=O)N[C@@H](CCCNC(=N)N)C(=O)N[C@@H](CCCNC(=N)N)C(=O)N[C@@H](CCCNC(N)=O)C(=O)N2) [Example 63] | 2
